# reported pKd; entries follow
ASSAYED_SYSTEM: T1, cynomolgus tissue factor on HEK293T-cynoTF cells (cynomolgus monkey, UniProt P13726 33-294 (human entry))
T1 construct: stably transfected HEK293T cells
T1 chain: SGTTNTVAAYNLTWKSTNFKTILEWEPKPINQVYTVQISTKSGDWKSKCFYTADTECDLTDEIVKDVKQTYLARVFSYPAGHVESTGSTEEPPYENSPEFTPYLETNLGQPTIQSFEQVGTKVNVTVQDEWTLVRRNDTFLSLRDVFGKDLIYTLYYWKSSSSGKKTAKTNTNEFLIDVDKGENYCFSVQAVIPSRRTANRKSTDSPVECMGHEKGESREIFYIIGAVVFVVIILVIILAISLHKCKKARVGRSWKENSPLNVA
ASSAY_COMMENT: flow cytometry on HEK293T-cynoTF cells, one-site fit of MFI
Description: HEK293T, BxPC3 cells (TF positive) and NCI-H1703 (TF negative) cells were obtained from ATCC (American Type Culture Collection) and maintained in DMEM: F12 (1:1), high glucose (Corning) supplemented with 10% heat-inactivated fetal bovine serum (ThermoScientific), 1× Penicillin/Streptomycin (Corning) and 2 mmol glutamax (Thermo Fisher Scientific). […]
Lab note — pKd values are minus log10 of concentrations in M.

As a guide, the following entries are already answered.
mAb 37: aTF_2842-B01_Hc3_Y180/F404TAG pAzMeF; aTF_2842-B01_Lc2 (antibody, IgG1, V domains shown, pAzMeF at Y180 and F404 (EU), * in the sequence, unconjugated full-length IgG1/kappa, cell-free expressed; also called 2842-B01 HC3/LC2; 2842-B01-HC3/LC2 Y180/F404) VH: EVQLVESGGGLVQPGGSLRLSCAASGFSISSYDMSWVRQAPGKGLEWIGIIGSNGRTYYPDSVKGRFTISRDNSKNTVTLQMNSLRAEDTAVYYCARGLYDGTGNIWGQGTLVTVSS VL: ELVMTQSPPTLSLSPGERVTLSCRASQSVYGNNWLSWYQQKPGQAPRLLIYGASKLATSIPARFSGSGSGTQFTLTISSLQPEDFAVYYCQGTYYSGDWYFAFGQGTKVEIKR :: 8.41
mAb 47: aTF_2842-B01_HC3_Y180/F404TAG; aTF_2842-B01_LC1 (antibody, IgG1, V domains shown, non-natural amino acid (pAMF) at TAG sites Y180 and F404 (EU), * in the sequence, unconjugated full-length IgG1/kappa; also called 2842-B01 HC3/LC1) VH: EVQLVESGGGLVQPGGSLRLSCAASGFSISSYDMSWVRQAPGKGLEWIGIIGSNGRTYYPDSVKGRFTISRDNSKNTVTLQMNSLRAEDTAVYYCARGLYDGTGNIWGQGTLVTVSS VL: DLQMTQSPSSLSASVGDRVTITCRASQSVYGNNWLSWYQQKPGKAPKLLIYGASKLASGVPSRFSGSGSGTQFTLTISSLQPEDFATYYCQGTYYSGDWYFAFGQGTKVEIKR :: 8.49

mAb 48: aTF_2842-B01_HC1_Y180/F404TAG; aTF_2842-B01_LC3 (antibody, IgG1, V domains shown, non-natural amino acid (pAMF) at TAG sites Y180 and F404 (EU), * in the sequence, unconjugated full-length IgG1/kappa; also called 2842-B01 HC1/LC3) VH: QVQVVESGGGLVKPGGSLRLSCAASGFSISSYDMSWIRQAPGKGLEWIGIIGSNGRTYYADSVKGRFTISRNTNENTVYLQMNSLRAEDTAVYYCARGLYDGTGNIWGQGTLVTVSS VL: DIQMTQSPSSLSASVGDRVTITCQASQSVYGNNWLSWYQQKPGKAPKLLIYGASKLASGVPSRFSGSGSGTDFTLTISSLQPEDFATYYCQGTYYSGDWYFAFGGGTKVEIKR has a reported pKd of 8.47

mAb 49: aTF_2842-G04_HC2_Y180/F404TAG; aTF_2842-G04_LC2 (antibody, IgG1, V domains shown, non-natural amino acid (pAMF) at TAG sites Y180 and F404 (EU), * in the sequence, unconjugated full-length IgG1/kappa; also called 2842-G04 HC2/LC2) VH: QVQVQESGPGLVKPPGTLSLTCAVSGFSLSYYGVSWVRQPPGKGLEWIGTIDSSGRTYYNPSLKSRVTISNDNAPNTVSLKLSSVTAADTAVYYCARDFYGWNSGALDIWGQGTLVTVSS VL: DLQLTQSPSTLSASVGDRVTITCRASQSVYSNKYLSWYQQKPGKAPKLLIYKASTLASGVPSRFSGSGSGTEFTLTISSLQPDDFATYYCAAAYSDDSDTAFGQGTKVEIKR has a reported pKd of 8.29

Numbers sourced from patent US20250122306A1.
